# assay.name: yeast display, Sf9 membrane polyspecificity reagent, FACS + sequencing; frameworks hold sequencing errors
measure: polyreactivity (PSR sort gate)

Sample answers from the record:
sequence.chain	polyreactivity (PSR sort gate)
QVQLVETGGGLVQAGGSLRLSCAASGIIFFYYGMGWYRQAPGKERELVARISSGGSTNYADSVKGRFTISRDNAKNTVYLHMNSLKQEDTAVYYCAARISTRYGYWGPGTQVTVSS	low polyreactivity
QVQLVESGGGLVQAGGSLRLSCAASGLTFRWYAMGWYRQAPGKERELVAAISSGGSTNYADSVKGRFTISRDNAKNTVYLQMNSLKPEDTAVDYCNAKGRPWFKYDYWGQGTQVTVSS	high polyreactivity
QVQLVESGGGLVQAGGSLRLSCAASGFTFRRYAMGWYRQAPGKERELVAAISTSGGRTYYADSVKGRFTISRDNAKNTVYLQMNSLKPEDTAVYYCAARIPKQRDVRGSGMNYWGQGTQVTVSS	high polyreactivity
QVQLVESGGGLVQAGGSLRLSCAASGLTFRYYTMGWYRQAPVKERELVAAISRGGSTTYADSVKGRFTISRVNAKNTVYLQMNSLKPEDTAVYYCAVRPGTWSNYYAGGKKYDYWGLGTQVTVSS	high polyreactivity

Problem: Please report the measured polyreactivity (PSR sort gate) for QVQLVESVGGLVQAGGSLRLICAASGSTFNWYAMGWYRQAPGKERDLVADITWRDGSTYYADSVKGRFTISRDNAKNTVYLQMNSLKPDDPAVYYCADDYTYWGIFFGYWGQGTQVTVSS
Result: high polyreactivity

Problem: Please report the measured polyreactivity (PSR sort gate) for QVQLVESGGGLVQAGGSLRLSCAASGRIFNYYAMGWYRQAPGKERELVAAISARGGSTYYADSVKGRFTISRDNAKNTVYLQMNSLKPEDNAVYYCAKRLYYSYGKYLLGAYYYWGQGTQVTVSS
Result: high polyreactivity

Problem: Please report the measured polyreactivity (PSR sort gate) for QVQLVESGGGLVQAGGSLRLSCAAYGFIFRNYAMGWDRQAPGKERELVAAITWRGGSTYYADSVKGRFTISRDNAKNTVYLQMNSLKPEDTAVYYCAARGYRSREDYWGQGTQVTVSS
Result: high polyreactivity

Problem: Please report the measured polyreactivity (PSR sort gate) for QVQLVESGGGLVQAGGSLRLSCGASGSTFAYYTMGWYRQAPAKERELVAAITSGGRTSYAESVKGRFTISRDNAKNTVYLQMNSLKPEDTAVYYCAKGRKPGYYYWGQGTQVTVSS
Result: high polyreactivity

Problem: Please report the measured polyreactivity (PSR sort gate) for QVQLVESGGGLVQARGSLRLSCAASGSIIDYYAMGWYRQAPGKERELVAAINISGGDTYYADSVKGRFTISRDNAKNTVYLQMNSLKPEDTAVYYCNADRFYIDYSNTYDSIRDYWGQGTQVSVSS
Result: low polyreactivity

Problem: Please report the measured polyreactivity (PSR sort gate) for QVQLVESGVVLVQAGGSLPLSCSASGRIFIHYAMGWYRQAPGKERELVAAISASGGTTNYADSVKGRFTISRDNAKNTVYLQMNSLKPEDTAVYYCAAEGYRSWRGLRSRYYYWGEGTQVTVSS
Result: high polyreactivity

Problem: Please report the measured polyreactivity (PSR sort gate) for QVQLVESGGGLVQAGGSLRLSCAASGFTFYLYTMGWYRQAPGKERELVATITSDGGTNYADSVKGRFTISRDNAKYTVYLQMNSLKPEDTAVYYCNAASRRGSRKQAKYDYWGQGTQVTVSS
Result: low polyreactivity

Problem: Please report the measured polyreactivity (PSR sort gate) for QVQLVESGGGLVQAGGSLRLSCAASGSIFRPYTMGWYRPAPGKERELVAGITSGGGTYYADSVKGRFTISRDNAKNTVYLQMNSLKPEDTAVYYCAADNWKTRSLVDYWGQGTEVTVSS
Result: high polyreactivity

Problem: Please report the measured polyreactivity (PSR sort gate) for QVQLVESGGGLVQAGGSLRLSCAASGSIFAYYAMGWYRQAPGKERELVAAISRRGGSTYYADSVKGRFTISRDNAKNTVYLQMNSLKPEDTAVYYCAARRSTQYKTGVDSWGQGTQVTVSS
Result: high polyreactivity

Problem: Please report the measured polyreactivity (PSR sort gate) for QVQLVESGGGLVQAGGSLRLSCAASGRTFRSNAMGWYRQAPGKERELVAAISKRGASTYYADSVKGRFTISRDNAKNTVYLQMNSLKPEVTAVYYCNTGAAKHAYDYWGQGTQVTVSS
Result: high polyreactivity

Problem: Please report the measured polyreactivity (PSR sort gate) for QVQLVESGGGLVQAGGSLRLSCAASGRIFNKNAMGWYRQAPGKERELVAAITYSGGSTYYADSVKGRFTISRDNAKNTVYLQMNSLKPEDTAVYYSARDLYYVYSFAPYRYEYWGQGTQVTVSS
Result: low polyreactivity

Problem: Please report the measured polyreactivity (PSR sort gate) for QVQLVESGGGLVQAGGSLRLSCAASGSIFANYAMGWYRQAPGKERELVAAISKRGGSTNYADSVKGRFTISRDNAKNTVYLQMISLKPEDTAVYYCNVKPGSRRVLAAAYGYWGQGTKVTVSS
Result: low polyreactivity

Problem: Please report the measured polyreactivity (PSR sort gate) for QVQLVESGGGLVQAGGSLRLICDASGRIFGDNAMGWYRQAPGKEREFVATINGSGGSTYYADSVKGRFTISRDNAKNTVYLQMNSLKPEVTAVYYCFVQQNYGYDYWGQGTQVTVSS
Result: low polyreactivity

Problem: Please report the measured polyreactivity (PSR sort gate) for QVQLVESGGGLVQAGGSLRISCAASGRTFDRYAMGWYREAPGKERELVAVIRFIGGSTYYADSVKGRFTISRDNAKKTVYLQRNSLIPEDTAVYYCAAEVYDSYFFGYEYWGQGTQVTVSS
Result: low polyreactivity

Problem: Please report the measured polyreactivity (PSR sort gate) for QVQLVESAGGLVQAGGSLRLSCAPSGFIFKHNAMGWYRQAPGKERECVAAISWSGDSTYYADSVKGRFTISRDNAKNTVYLQMNSLKPEDTAVYYCAAVRALRKVRDYYYWGQGTQVTVSS
Result: high polyreactivity

Problem: Please report the measured polyreactivity (PSR sort gate) for QVQLVESGGGLVQAGGSLRLSCAASGFTFTKNAMGWYRQAPGKEREMVAAITWRGGSTYYADSVKGRFTISRDNAKNTVYLQMNSLKPEDTAVYYCAADGGSLYDWGQGTQVTVSS
Result: low polyreactivity

Problem: Please report the measured polyreactivity (PSR sort gate) for QVQLVESGGGLVQAGGSLRLSCAASGYTFSYANAMGWYRQAPGKERELVASISSTGGRTYYADSVKGRFTISRDNAKNTVYLQMNSLKPEDTAVYYCASRYWRYGYWGQGTQVTVSS
Result: high polyreactivity

The origin of these recorded values is the nanobody polyreactivity screen of Harvey et al. (2022).
